All figures here come from patent US20120129870A1.

Please provide measured IC50 for the entries that follow.
Molecular target: UniProtKB P49146
Sequence (P49146 1-381): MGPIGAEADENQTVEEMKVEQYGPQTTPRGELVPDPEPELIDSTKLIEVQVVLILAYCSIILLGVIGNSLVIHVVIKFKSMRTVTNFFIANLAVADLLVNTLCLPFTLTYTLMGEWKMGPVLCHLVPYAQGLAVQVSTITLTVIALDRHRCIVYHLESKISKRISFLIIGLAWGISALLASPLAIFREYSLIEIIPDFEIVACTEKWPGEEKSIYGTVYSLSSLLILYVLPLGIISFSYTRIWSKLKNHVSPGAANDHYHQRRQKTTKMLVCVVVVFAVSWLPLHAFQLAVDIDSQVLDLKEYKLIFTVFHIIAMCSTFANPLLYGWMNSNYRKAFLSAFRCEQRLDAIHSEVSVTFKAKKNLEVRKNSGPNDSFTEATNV
Assay: Neuropeptide Y2 radioligand binding assay ([125I]PYY, KAN-Ts membranes)
Design: endogenous in cells; host or cells: KAN-Ts cells (membrane preparation)
Details: KAN-Ts membranes endogenously expressing Y2, [125I]PYY (80 pM), 1 h at rt

Req: Tell me reported IC50 for O=C(NCc1ccc(N2CCN(C(c3ccccc3)c3ncco3)CC2)c(F)c1)C1CC1 (stereo not drawn) [Compound 171] , tested with UniProtKB P49146.
Resp: > 10 µM

Req: Tell me reported IC50 for Cn1ccnc1Nc1ccc(N2CCN(C(c3ccccc3)c3ncco3)CC2)c(F)c1 (stereo not drawn) [Compound 58] , tested with UniProtKB P49146.
Resp: > 10 µM

Req: Tell me reported IC50 for O=C(Nc1ccc(N2CCN(C(c3ccccc3)c3ncco3)CC2)c(F)c1)C1CCC(F)(F)CC1 (stereo not drawn) [Compound 108] , tested with UniProtKB P49146.
Resp: > 10 µM
